# Test system: K562
# assayText: NCI tumour cell line growth inhibition, 48 h
The source made the active and inactive calls. No stated cut-off is given here; in the data, active = GI50 up to about 1.1 µM and inactive = higher.
Please reply with one of these outcomes: yes (active), no (inactive)

Reference set (3 entries):
compound	categoryLabel
CN(C)c1ccc(C=c2c3ccccc3n3c2c2c([n+]3C)CCCC2)cc1	yes
COc1ccc2oc(C(=O)O)c3c2c1CCC3CCC(=O)O (stereo unspecified)	no
N=C(N)SCC(=O)O	no

// query Hi, do you know how `O=C(O)CCNCCCNCCC(=O)O` came out in this test?
// result no

// query Hi, do you know how COc1ccc(C(=O)C(c2ccc(OC)cc2)C2C(=O)Oc3ccccc32)cc1 (stereo unspecified) came out in this test?
// result no

// query Hi, do you know how `CCCCOC(=O)Nc1ccc(S(=O)(=O)Nc2ccccc2Cl)cc1` came out in this test?
// result no

// query Hi, do you know how `O=C1OC(c2ccccc2)=N/C1=C/c1cccs1` came out in this test?
// result no
